Reference for the values: ChEMBL document CHEMBL1921730

List of pIC50 values.
System: Plasmodium berghei
Assay: Antiplasmodial activity against Plasmodium berghei […] by SYBR green 1 assay
Assay type: functional, organism-based
FYI, pIC50 means -log10 of a concentration in mol per litre.

Answered cases to consult:
1) CC[n+]1ccn(CCCCCCCCCCCCn2cc[n+](CC)c2)c1.[I-].[I-] : 6.92
2) O=C(Cn1cc[n+](CC(=O)c2ccc(Cl)cc2)c1)c1ccc(Cl)cc1 : 5.38
3) C[n+]1ccn(CCCCCCCCCCCn2cc[n+](C)c2)c1.[I-].[I-] : 7.30

Req: Read the entry `C[n+]1ccn(CCCOc2ccc(OCCCn3cc[n+](C)c3)cc2)c1.[I-].[I-]` and write its reported pIC50.
Resp: 7.34

----------
System: CHO
Assay: Cytotoxicity against CHO cells after 48 hrs by MTT assay
Format: cell-based
Conditions: Cricetulus griseus
pIC50: −log10 of the molar value.
Short version: pIC50 at least 5 is T, less is F.

Answered examples (10):
1. C[n+]1cn(-c2ccc(-c3ccc(-n4c[n+](C)c5ccccc54)cc3)cc2)c2ccccc21.[I-].[I-] : F
2. c1cn(CCCCCCCCCCCCCCCCn2ccnc2)cn1 : T
3. Cl.Cl.c1cn(CCCCCCCCCCn2ccnc2)cn1 : F
4. C[n+]1ccn(CCCCCCCCCCCCCCCCn2cc[n+](C)c2)c1.[I-].[I-] : T
5. CCC[n+]1ccn(CCCCCCCCCCCCn2cc[n+](CCC)c2)c1.[I-].[I-] : F
6. CC[n+]1ccn(CCCCCCCCCCCCn2cc[n+](CC)c2)c1.[I-].[I-] : F
7. Cl.Cl.c1cn(CCCCn2ccnc2)cn1 : F
8. c1cn(CCCCCCCCCCCn2ccnc2)cn1 : F
9. c1cn(CCCCCCCCCCCCCCCCCCn2ccnc2)cn1 : T
10. c1cn(Cc2ccc(-c3ccc(Cn4ccnc4)cc3)cc2)cn1 : F

Req: Confirm if pIC50 reported for the compound `c1cn(-c2ccc(-n3ccnc3)cc2)cn1` is 5 or above.
Resp: F

Req: Confirm if pIC50 reported for the compound `C[n+]1ccn(CCCCCCCCCCCCCn2cc[n+](C)c2)c1.[I-].[I-]` is 5 or above.
Resp: F

Req: Confirm if pIC50 reported for the compound `C[n+]1cnn(CCCCCCCCCCCCn2c[n+](C)cn2)c1.[I-].[I-]` is 5 or above.
Resp: F

----------
List of Ratio IC50 values.
Assay: Ratio of IC50 for CHO cells to IC50 for Plasmodium falciparum
Please state the value as a number alone, without comment.

Answered cases to consult:
1) C[n+]1ccn(Cc2ccc(-c3ccc(Cn4cc[n+](C)c4)cc3)cc2)c1.[I-].[I-] : 694
2) O=[N+]([O-])c1ccc(C[n+]2ccn(-c3ccc(-c4ccc(-n5cc[n+](Cc6ccc([N+](=O)[O-])cc6)c5)cc4)cc3)c2)cc1.[Br-].[Br-] : 609
3) Cl.Cl.c1cn(CCCCCCn2ccnc2)cn1 : 10
4) Cl.Cl.c1cn(CCCCCCCCCCCCCCn2ccnc2)cn1 : 2.8

Req: Read the entry `C[n+]1ccn(CCCCCCCCCCCn2cc[n+](C)c2)c1.[I-].[I-]` and write its reported Ratio IC50.
Resp: 6885
